Provide the reported Ki of each item.
TARGET: human factor Xa (Homo sapiens)
Construct: purchased Enzyme Research Laboratories
Sequence (P00742 235-488 limits assumed): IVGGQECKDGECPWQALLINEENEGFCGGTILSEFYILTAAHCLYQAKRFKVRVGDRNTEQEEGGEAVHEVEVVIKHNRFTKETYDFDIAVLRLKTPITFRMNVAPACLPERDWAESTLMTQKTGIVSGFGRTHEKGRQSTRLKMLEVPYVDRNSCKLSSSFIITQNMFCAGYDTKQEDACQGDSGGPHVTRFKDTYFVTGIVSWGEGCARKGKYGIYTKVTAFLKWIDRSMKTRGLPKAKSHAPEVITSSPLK
Sequence (P00742 41-179 partner limits assumed): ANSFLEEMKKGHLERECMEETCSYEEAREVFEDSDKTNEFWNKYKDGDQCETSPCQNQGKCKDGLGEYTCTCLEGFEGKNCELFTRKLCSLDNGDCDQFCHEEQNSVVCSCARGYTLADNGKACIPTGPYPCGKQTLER
TEST NAME: Factor Xa chromogenic peptide substrate (S-2222) assay
Assay type: biochemical
RECORDED CONDITIONS: human factor Xa 3 nM, chromogenic substrate S-2222, pH 7.8, room temperature; apparent Ki from IC50 by Cheng-Prusoff
One number for each entry, in nM.

// below: answered compounds
COMPOUND	Ki / nM
O=C(NCC1CN(C(=O)Nc2ccc(-n3ccccc3=O)cc2F)c2cccc(Cl)c21)c1ccc(Cl)s1 (stereo not drawn)	2
O=C(Nc1ccc(-n2ccccc2=O)cc1)C1c2ccccc2CN1C(=O)Nc1ccc(Cl)cc1 (stereo in doubt)	2

[ask] Requested field: Ki. Item: "O=C(Nc1ccc(-n2ccccc2=O)cc1F)[C@H]1Cc2ccccc2CN1C(=O)Nc1ccc(Cl)cc1"
[reply] 2
